Data credit: the supplement of paper PMC9732359

# testName: protein stability index of a GFP-peptide fusion (yeast GPS) (PSI 1-4); higher = more stable; sorted into four equal gates, so the index is relative within each strain
# assaySetup: ubr1∆
Output yes (1) for protein stability index not less than 3; output no (0) otherwise.

| chainSequence | categoryLabel |
| --- | --- |
| ERHQAGKNQWFFSKLRF [RPL27A] | yes (1) |

Say whether YRTPGSSGVLSSNIAGT [SSN2] shows protein stability index of 3 or more.
yes (1)

Repeat with KQVQDFEENDHPNRVLE [COR1]
no (0)

Repeat with KLKDSKKLFQKKENLTR [YML103C/NUP188]
yes (1)
